Source of measurements: ChEMBL document CHEMBL2311524

- EXPERIMENTAL_DETAILS: AUC (0 to infinity) in CD-1 mouse at 10 mg/kg, po
- Format: ADME, organism-based
- Design: dose 10 mg/kg, route oral, time infinity
- MEASUREMENT_CONDITIONS: plasma
READOUT_KIND: AUC(0-inf) (ng·h/mL)
State just the number; it will be interpreted in ng·h/mL.

[
  {
    "STRUCTURE_NOTATION": "Cc1ccccc1C#Cc1ccc(CCC(=O)O)cc1",
    "UNIT_LABEL": "ng·h/mL",
    "AUC(0-inf)": 3420
  }
]

Query :: Quick check: AUC(0-inf) of N#CCc1ccccc1C#Cc1ccc(CCC(=O)O)cc1 ?
Result :: 12200
